Target: human IP6K1 (Homo sapiens, UniProt Q92551)
Construct: human IP6K1 (1-441) gene; GST; made in house; host or cells: Sf-9 insect cells
Sequence (Q92551 whole entry): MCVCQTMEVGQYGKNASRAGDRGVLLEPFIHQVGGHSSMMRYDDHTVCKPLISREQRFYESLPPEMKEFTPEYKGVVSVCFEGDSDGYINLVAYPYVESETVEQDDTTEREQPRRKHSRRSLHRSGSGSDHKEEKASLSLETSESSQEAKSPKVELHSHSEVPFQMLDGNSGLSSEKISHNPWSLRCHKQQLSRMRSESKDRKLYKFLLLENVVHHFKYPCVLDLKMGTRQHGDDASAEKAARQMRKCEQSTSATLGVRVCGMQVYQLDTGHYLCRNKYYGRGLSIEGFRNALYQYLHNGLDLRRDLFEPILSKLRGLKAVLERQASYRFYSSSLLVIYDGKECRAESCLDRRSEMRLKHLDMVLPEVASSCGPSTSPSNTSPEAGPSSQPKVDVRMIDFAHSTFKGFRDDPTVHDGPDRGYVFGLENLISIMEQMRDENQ
Assay: IP6K enzyme inhibitory assay (ADP-Glo Kinase Assay), human IP6K1
Assay type: biochemical
Conditions: compound concentration 0.1 μM; read-out: ADP-Glo method inhibitory rate (%) human IP6K1
Kindly supply the reported inhibition at 0.1 µM values for the records listed here.
Note to self: number, then unit, no commentary.

Hey, can you go through the list below and give me inhibition at 0.1 µM for every item?
1. O=C(O)c1ccc2c(n1)[C@]1(CC[C@@H](Oc3ccccc3Cl)CC1)C(=O)N2 [Example 90]
2. O=C(O)c1ccc2c(n1)[C@]1(CC[C@@H](Oc3ccc(Cl)cc3)CC1)C(=O)N2 [Example 92]
3. N#Cc1cc(Cl)cnc1O[C@H]1CC[C@]2(CC1)C(=O)Nc1ccc(C(=O)O)nc12 [Example 110]
4. O=C(O)c1ccc2c(n1)[C@]1(CC[C@@H](Oc3ncc(C4CC4)cc3C(F)(F)F)CC1)C(=O)N2 [Example 109]
5. O=C(O)c1ccc2c(c1)[C@]1(CC[C@@H](Oc3ncccc3Cl)CC1)C(=O)N2 [Example 24]
6. Cc1cc(F)ccc1O[C@H]1CC[C@@]2(CC1)C(=O)Nc1ccc(C(=O)O)cc12 [Example 50]
7. Cc1ncccc1O[C@H]1CC[C@@]2(CC1)C(=O)Nc1ccc(C(=O)O)cc12 [Example 32]

Reply:
1: 49%; 2: 97%; 3: 84%; 4: 94%; 5: 86%; 6: 101%; 7: 63%
